# System: ATP;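 further: ATP exposure 15 min at 22 °C before imaging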
# test-details: switch fluorescence ratio, 500 uM ATP over buffer (Cy3 cluster intensity, sum of 5 cycles each) (fold (ratio)); higher = stronger signal-on switching upon ATP binding; sequences stand for … in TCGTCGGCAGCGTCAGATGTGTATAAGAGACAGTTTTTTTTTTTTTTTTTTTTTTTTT…TC
# run-parameters: aptamer strand: ATP DNA aptamer (quencher-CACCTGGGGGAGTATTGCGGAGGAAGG + anchor), 100 nM annealed; ATP concentration: 500 uM
recorded-endpoint: switch fluorescence ratio
API doc: respond with a numeric literal and nothing else, no unit.

Previously resolved entries follow.
Which measured switch fluorescence ratio value corresponds to "GGTCTGGGGT" ?
1.09

So what does the record say about switch fluorescence ratio for "ATAATATTTG" ?
0.985

Looking for the measured switch fluorescence ratio of "CCTAGTACCG" , can you help?
0.992

Need switch fluorescence ratio, item "GGGTCTAATT"
0.992

Endpoint output: switch fluorescence ratio of "TTCAAAGAGT" . Value?
0.994

Further cases:
Quick one: switch fluorescence ratio of "TATGGGTACG" ?
1.01
